procedure.summary: activity coefficient (dimensionless); of the first substance listed, at infinite dilution; xn = mol fraction of the nth substance listed
condition.parameters: 364.65 K; Liquid; Chromatography; x1 = 0
// classify: if (activity coefficient < 2) Yes else No

{"columns": ["compound", "class.name"],
 "data": [
  ["CCCCCC(=O)OC [methyl hexanoate] + CCCCCC[n+]1ccn(C)c1.O=S(=O)([N-]S(=O)(=O)C(F)(F)F)C(F)(F)F", "Yes"],
  ["CCCCCCC(=O)OC [methyl heptanoate] + CCCCCC[n+]1ccn(C)c1.O=S(=O)([N-]S(=O)(=O)C(F)(F)F)C(F)(F)F", "Yes"],
  ["CCCCc1ccccc1 [butylbenzene] + CCCCCC[n+]1ccn(C)c1.O=S(=O)([N-]S(=O)(=O)C(F)(F)F)C(F)(F)F", "No"],
  ["C=CCCCCCCCCCC [1-dodecene] + CCCCCC[n+]1ccn(C)c1.O=S(=O)([N-]S(=O)(=O)C(F)(F)F)C(F)(F)F", "No"],
  ["CCCCCc1ccccc1 [pentylbenzene] + CCCCCC[n+]1ccn(C)c1.O=S(=O)([N-]S(=O)(=O)C(F)(F)F)C(F)(F)F", "No"]
]}

----------
procedure.summary: activity coefficient (dimensionless); of the first substance listed, at infinite dilution; xn = mol fraction of the nth substance listed
condition.parameters: 301.95 K; Liquid; Chromatography; x1 = 0
readout.type: activity coefficient

{"columns": ["molecule", "reported"],
 "data": [
  ["CCO [ethanol] + CCCCCC[n+]1ccn(C)c1.O=S(=O)([N-]S(=O)(=O)C(F)(F)F)C(F)(F)F", 1.95],
  ["CCCCC [pentane] + CCCCCC[n+]1ccn(C)c1.O=S(=O)([N-]S(=O)(=O)C(F)(F)F)C(F)(F)F", 6.26],
  ["C=CCCC [1-pentene] + CCCCCC[n+]1ccn(C)c1.O=S(=O)([N-]S(=O)(=O)C(F)(F)F)C(F)(F)F", 3.63],
  ["CO [methanol] + CCCCCC[n+]1ccn(C)c1.O=S(=O)([N-]S(=O)(=O)C(F)(F)F)C(F)(F)F", 1.46],
  ["C=CCCCCC [1-heptene] + CCCCCC[n+]1ccn(C)c1.O=S(=O)([N-]S(=O)(=O)C(F)(F)F)C(F)(F)F", 6.36],
  ["C=CCCCCCC [oct-1-ene] + CCCCCC[n+]1ccn(C)c1.O=S(=O)([N-]S(=O)(=O)C(F)(F)F)C(F)(F)F", 8.83]
]}

----------
activity coefficient by entry:
procedure.summary: activity coefficient (dimensionless); of the first substance listed, at infinite dilution; xn = mol fraction of the nth substance listed
condition.parameters: 375.15 K; Liquid; Chromatography; x1 = 0

{"columns": ["compound", "activity coefficient"],
 "data": [
  ["CCCc1ccccc1 [propylbenzene] + CCCCCC[n+]1ccn(C)c1.O=S(=O)([N-]S(=O)(=O)C(F)(F)F)C(F)(F)F", 2],
  ["CCCCCC(=O)OC [methyl hexanoate] + CCCCCC[n+]1ccn(C)c1.O=S(=O)([N-]S(=O)(=O)C(F)(F)F)C(F)(F)F", 1.25],
  ["CCCCCc1ccccc1 [pentylbenzene] + CCCCCC[n+]1ccn(C)c1.O=S(=O)([N-]S(=O)(=O)C(F)(F)F)C(F)(F)F", 3.37],
  ["C1COCCO1 [1,4-dioxane] + CCCCCC[n+]1ccn(C)c1.O=S(=O)([N-]S(=O)(=O)C(F)(F)F)C(F)(F)F", 0.04],
  ["CCCCCCC(=O)OC [methyl heptanoate] + CCCCCC[n+]1ccn(C)c1.O=S(=O)([N-]S(=O)(=O)C(F)(F)F)C(F)(F)F", 1.44],
  ["CCCCc1ccccc1 [butylbenzene] + CCCCCC[n+]1ccn(C)c1.O=S(=O)([N-]S(=O)(=O)C(F)(F)F)C(F)(F)F", 2.66]
]}

----------
procedure.summary: activity coefficient (dimensionless); of the first substance listed, at infinite dilution; xn = mol fraction of the nth substance listed
condition.parameters: 343.85 K; Liquid; Chromatography; x1 = 0
readout.type: activity coefficient

{"columns": ["compound", "readout.type", "reported"],
 "data": [
  ["CCc1ccccc1 [ethylbenzene] + CCCCCC[n+]1ccn(C)c1.O=S(=O)([N-]S(=O)(=O)C(F)(F)F)C(F)(F)F", "activity coefficient", 1.54],
  ["CCCc1ccccc1 [propylbenzene] + CCCCCC[n+]1ccn(C)c1.O=S(=O)([N-]S(=O)(=O)C(F)(F)F)C(F)(F)F", "activity coefficient", 2.08],
  ["Cc1ccccc1 [toluene] + CCCCCC[n+]1ccn(C)c1.O=S(=O)([N-]S(=O)(=O)C(F)(F)F)C(F)(F)F", "activity coefficient", 1.08],
  ["CC#N [acetonitrile] + CCCCCC[n+]1ccn(C)c1.O=S(=O)([N-]S(=O)(=O)C(F)(F)F)C(F)(F)F", "activity coefficient", 0.426],
  ["CC(C)=O [acetone] + CCCCCC[n+]1ccn(C)c1.O=S(=O)([N-]S(=O)(=O)C(F)(F)F)C(F)(F)F", "activity coefficient", 0.371]
]}

----------
procedure.summary: activity coefficient (dimensionless); of the first substance listed, at infinite dilution; xn = mol fraction of the nth substance listed
condition.parameters: 312.25 K; Liquid; Chromatography; x1 = 0
readout.type: activity coefficient

{"columns": ["compound", "readout.type", "reported"],
 "data": [
  ["CC#N [acetonitrile] + CCCCCC[n+]1ccn(C)c1.O=S(=O)([N-]S(=O)(=O)C(F)(F)F)C(F)(F)F", "activity coefficient", 0.456],
  ["C=CCCCCCCCC [1-decene] + CCCCCC[n+]1ccn(C)c1.O=S(=O)([N-]S(=O)(=O)C(F)(F)F)C(F)(F)F", "activity coefficient", 16],
  ["CCC=O [propanal] + CCCCCC[n+]1ccn(C)c1.O=S(=O)([N-]S(=O)(=O)C(F)(F)F)C(F)(F)F", "activity coefficient", 0.45],
  ["ClC(Cl)Cl [trichloromethane] + CCCCCC[n+]1ccn(C)c1.O=S(=O)([N-]S(=O)(=O)C(F)(F)F)C(F)(F)F", "activity coefficient", 0.68],
  ["CCCC=O [butanal] + CCCCCC[n+]1ccn(C)c1.O=S(=O)([N-]S(=O)(=O)C(F)(F)F)C(F)(F)F", "activity coefficient", 0.576],
  ["C=CCCCCCCC [1-nonene] + CCCCCC[n+]1ccn(C)c1.O=S(=O)([N-]S(=O)(=O)C(F)(F)F)C(F)(F)F", "activity coefficient", 12.5],
  ["CCCCCC [hexane] + CCCCCC[n+]1ccn(C)c1.O=S(=O)([N-]S(=O)(=O)C(F)(F)F)C(F)(F)F", "activity coefficient", 7.65]
]}

----------
activity coefficient by entry:
procedure.summary: activity coefficient (dimensionless); of the first substance listed, at infinite dilution; xn = mol fraction of the nth substance listed
condition.parameters: 312.25 K; Liquid; Chromatography; x1 = 0

{"columns": ["molecule", "activity coefficient"],
 "data": [
  ["CCCCCCCC [octane] + CCCCCC[n+]1ccn(C)c1.O=S(=O)([N-]S(=O)(=O)C(F)(F)F)C(F)(F)F", 14.3],
  ["CC(C)=O [acetone] + CCCCCC[n+]1ccn(C)c1.O=S(=O)([N-]S(=O)(=O)C(F)(F)F)C(F)(F)F", 0.357],
  ["CCCCCCC [heptane] + CCCCCC[n+]1ccn(C)c1.O=S(=O)([N-]S(=O)(=O)C(F)(F)F)C(F)(F)F", 10.4],
  ["C1=CCCCC1 [cyclohexene] + CCCCCC[n+]1ccn(C)c1.O=S(=O)([N-]S(=O)(=O)C(F)(F)F)C(F)(F)F", 3.24],
  ["C1CCCCC1 [cyclohexane] + CCCCCC[n+]1ccn(C)c1.O=S(=O)([N-]S(=O)(=O)C(F)(F)F)C(F)(F)F", 5.23],
  ["CCC(C)(C)O [2-methylbutan-2-ol] + CCCCCC[n+]1ccn(C)c1.O=S(=O)([N-]S(=O)(=O)C(F)(F)F)C(F)(F)F", 1.53],
  ["CC(C)O [propan-2-ol] + CCCCCC[n+]1ccn(C)c1.O=S(=O)([N-]S(=O)(=O)C(F)(F)F)C(F)(F)F", 1.68],
  ["c1ccccc1 [benzene] + CCCCCC[n+]1ccn(C)c1.O=S(=O)([N-]S(=O)(=O)C(F)(F)F)C(F)(F)F", 0.776],
  ["CCCCC=O [pentanal] + CCCCCC[n+]1ccn(C)c1.O=S(=O)([N-]S(=O)(=O)C(F)(F)F)C(F)(F)F", 1.1]
]}

----------
activity coefficient by entry:
procedure.summary: activity coefficient (dimensionless); of the first substance listed, at infinite dilution; xn = mol fraction of the nth substance listed
condition.parameters: 354.15 K; Liquid; Chromatography; x1 = 0
readout.type: activity coefficient

{"columns": ["molecule", "readout.type", "reported"],
 "data": [
  ["CCCCCCC(=O)OC [methyl heptanoate] + CCCCCC[n+]1ccn(C)c1.O=S(=O)([N-]S(=O)(=O)C(F)(F)F)C(F)(F)F", "activity coefficient", 1.6],
  ["C=CCCCCCCCC [1-decene] + CCCCCC[n+]1ccn(C)c1.O=S(=O)([N-]S(=O)(=O)C(F)(F)F)C(F)(F)F", "activity coefficient", 13.1],
  ["CCCCCC(=O)OC [methyl hexanoate] + CCCCCC[n+]1ccn(C)c1.O=S(=O)([N-]S(=O)(=O)C(F)(F)F)C(F)(F)F", "activity coefficient", 1.35],
  ["CCCCO [butan-1-ol] + CCCCCC[n+]1ccn(C)c1.O=S(=O)([N-]S(=O)(=O)C(F)(F)F)C(F)(F)F", "activity coefficient", 1.53]
]}
